From: ChEMBL document CHEMBL3885861

Species: Rattus norvegicus
Assay: Open TG-GATES - Regimen: Daily Repeat
Format: toxicity, organism-based, Sprague-Dawley
Design: regimen Daily Repeat, gender Male, age 6 weeks
Settings: in vivo, po, 0 mg/kg, […], tissue Plasma, route gavage, dose level Control, time 14 day
PROPERTY MEASURED: K (meq/L)
Unit meq/L implied. Number only.

Recall and state the measured K for CC(=N)S [THIOACETAMIDE] .
4.7

Recall and state the measured K for CN1C(=O)OC(C)(C)C1=O [TRIMETHADIONE] .
3.9

Recall and state the measured K for CCc1oc2ccccc2c1C(=O)c1cc(I)c(O)c(I)c1 [BENZIODARONE] .
4.9

Recall and state the measured K for Oc1ncnc2[nH]ncc12 [ALLOPURINOL] .
4.3

Recall and state the measured K for CC(C)(S)[C@@H](N)C(=O)O [PENICILLAMINE] .
4.2

Recall and state the measured K for O=C(O)c1cccnc1 [NIACIN] .
4

Recall and state the measured K for C[C@](N)(Cc1ccc(O)c(O)c1)C(=O)O [METHYLDOPA] .
4.5
